Source of measurements: ChEMBL document CHEMBL1124104

# measured-target: Neutrophil elastase (Homo sapiens)
# assay-name: Inhibitory activity against [14C]elastin hydrolysis at 1 uM concentration and 3h.
Reported inhibition values are given for each entry in this list.

{"columns": ["molecular-string", "inhibition"],
 "data": [
  ["CC(C)(C)C(=O)Oc1ccc(C(=O)c2ccc(OC(=O)C(C)(C)C)cc2OC(=O)C(C)(C)C)cc1", "47%"],
  ["CC(C)(C)C(=O)Oc1ccc(C(=O)OCc2cc(=O)c(OC(=O)C(C)(C)C)co2)c(OC(=O)C(C)(C)C)c1", "-1%"],
  ["CC(C)(C)C(=O)Oc1cc(C(=O)OCc2cc(=O)c(OC(=O)C(C)(C)C)co2)cc(OC(=O)C(C)(C)C)c1OC(=O)C(C)(C)C", "3%"],
  ["CC(C)(C)C(=O)Oc1ccc(C(=O)c2ccc(OC(=O)C(C)(C)C)cc2OC(=O)C(C)(C)C)c(OC(=O)C(C)(C)C)c1", "59%"]
]}

###

# measured-target: Neutrophil elastase (Homo sapiens, UniProt P08246)
# assay-name: Binding affinity towards human leukocyte elastase at 10e-7 M

{"columns": ["molecular-string", "Ki (nM)"],
 "data": [
  ["CC(C)(C)C(=O)Oc1ccc(C(=O)OCc2cc(=O)c(OC(=O)C(C)(C)C)co2)c(OC(=O)C(C)(C)C)c1", 70]
]}

###

# measured-target: Neutrophil elastase (Homo sapiens)
# Sequence (P08246 whole entry): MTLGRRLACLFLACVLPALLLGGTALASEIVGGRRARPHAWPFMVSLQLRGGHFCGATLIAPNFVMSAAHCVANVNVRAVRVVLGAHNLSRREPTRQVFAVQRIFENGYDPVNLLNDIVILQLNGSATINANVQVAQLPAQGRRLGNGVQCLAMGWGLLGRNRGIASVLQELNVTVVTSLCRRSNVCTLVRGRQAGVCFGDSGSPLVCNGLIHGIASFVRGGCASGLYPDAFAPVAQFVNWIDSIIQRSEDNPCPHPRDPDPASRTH
# assay-name: Inhibitory activity against human leukocyte elastase at 10e-8 M
Reported IC50 values are given for each entry in this list.
result-type: IC50 (nM)

{"columns": ["molecular-string", "result-number"],
 "data": [
  ["CCCCCCCCCCCCCCCCCC(=O)OCc1cc(=O)c(OC(=O)C(C)C)co1", 72],
  ["CC(C)(C)C(=O)Oc1ccc(C(=O)OCc2cc(=O)c(OC(=O)C(C)(C)C)co2)c(OC(=O)C(C)(C)C)c1", 27],
  ["CC(C)(C)C(=O)Oc1ccc(C(=O)c2ccc(OC(=O)C(C)(C)C)cc2OC(=O)C(C)(C)C)c(OC(=O)C(C)(C)C)c1", 27]
]}
